No of PG+ & th+ peptides per NTGA listing for selected molecules.
System: cultured PBMCs of the allergic donors
method.notes: ELISPOT of IL-5 or IFNg production by cultured PBMCs of TG allergic donors in response to peptide
Type: cell-based, human
condition.parameters: Table 6; PG+ peptides recognized by T cells of grass allergic donors (n=20)

molecule: NTGA 87: Phl p wild type sequence, Table 2 (protein, Phleum Pratense) MAVKVYVVYYSMYGHVGKLAEEIKKGASSVEGVEVKVWQVPEILSEEVLGKMGAPPKTDVPIISPQELAEADGILFGFPTRFGMMASQMKAFFDATGGLWREQSLAGKPAGVFFSTGTQGGGQETTPLTAVTQLTHHGMVFVPVGYTFGAKMFDMEKVQGGSPYGAGTFAGDGSRWPSEMELEHAFHQGKYFAGIAKKLKGS
No of PG+ & th+ peptides per NTGA: 0
--
molecule: NTGA 62: Phl p wild type sequence, Table 2 (protein, Phleum Pratense) MRRLSLILLAAAALLAAAVSAEPGPAPKLSPDFYSQTCPRAERIIAEVVQSKQMANPTTAAGVLRVFFHDCFVSGCDASVLIAPTHYAKSEKDADINHSLPGDAFDAVVRSKLALELECPGVVSCADILAIASRVLVTMTGGPRYPVPLGRKDSLSSNPAAPDVELPHSNFTVGRIIELFTAKGFTVQEMVALSGAHTLGFSHCQEFASRIYNYRDKGGKPAPFDPSMNPTYAKGLQAACQDYQKDPTIAAFNDIMTPGKFDNMYYVNIERGLGLLSTDEDMWSDMRTKPFVQRYAANNTDFFEDFAKAIEKLSMYGVKTGADGEIRRRCDAFNSGPNIQ
No of PG+ & th+ peptides per NTGA: 1
